Entry source: paper PMC4620497

System: SU-DHL-6
Experiment: MTT cell viability assay
Details: Homo sapiens, SU-DHL-6, 72 h
READOUT: IC50 (µM)
Numbers only, in µM.

INPUT: # return recorded IC50 for input CC(C)(C)c1cc(NC(=O)Nc2ccc(Oc3ncnc4[nH]ncc34)c(F)c2)no1 [SKLB-677]
OUTPUT: 7.78

====

Test: Pharmacokinetic assessment in rats
Assay type: in vivo, SD rats
Conditions: SD, rat, plasma, po, 10 mg/kg, 10 mg/kg P.O., mean, read-out: AUC(0-36h)
READOUT: AUC(0-t) (µg·h/mL)
Answers are plain numbers, in µg·h/mL.

INPUT: # return recorded AUC(0-t) for input CC(C)(C)c1cc(NC(=O)Nc2ccc(Oc3ncnc4[nH]ncc34)c(F)c2)no1 [SKLB-677]
OUTPUT: 176
